# measurement-protocol: Caspase-3/7 induction in CHO-K1 cells by small molecules, qHTS cell viability counter screen (AID 1346979); note: nearly all actives have a fitted effect of over 35% in size
# measurement-context: CellTiter-Fluor fluorescence, 17 h; series mostly up to 92.4 µM
# Description: National Center for Advancing Translational Sciences [NCATS] NIH Chemical Genomics Center [NCGC] U.S. Environmental Protection Agency [EPA] National Institutes of Environmental Health Sciences [NIEHS] National Toxicology Program [NTP] U.S. Food and Drug Administration [FDA] Apoptosis is a process of programmed cell death and plays a central role in the development of multicellular organisms. […]
Records with an inconclusive call do not appear. Activity calls are given as the source filed them. Calls come from the whole dose curve; as a rule, active = well fitted cell-killing curve with a large enough effect in the repeat runs; inconclusive = weak or mixed curves, or effect the other way; inactive = no such curve, though single readings can be large or run the other way.
Outcomes: yes for active, no for inactive

INSERT INTO results (compound, label) VALUES
  ('CC(=O)c1ccc[nH]1', 'no'),
  ('CCCCCCCCCCCCCCCCCC(=O)OCC(CC)CCCC (stereo unspecified)', 'no'),
  ('O[C@@H](CNC[C@H](O)[C@H]1CCc2cc(F)ccc2O1)[C@@H]1CCc2cc(F)ccc2O1', 'yes'),
  ('CCN(CC)c1cccc(O)c1', 'no'),
  ('Cc1ccc(N(CCO)CCO)cc1', 'no'),
  ('CCSC(=O)N(CC)CC', 'no'),
  ('OCC(CO)n1cnc(-c2ccc(F)cc2)c1-c1ccnc(Oc2ccccc2)n1', 'no'),
  ('O=C(O)c1cccc(C[C@@H]2COc3ccc(OCc4nc5cc(F)ccc5s4)cc3[C@@H]2O)c1', 'no'),
  ('Nc1ccc(NC(=O)c2ccc(N)cc2)cc1', 'no'),
  ('C[C@@H]1[C@H](O)[C@@H](C)/C=C/C=C\C=C\C=C\C=C\C=C\C=C\[C@H](O[C@@H]2O[C@H](C)[C@@H](O)[C@H](N)[C@@H]2O)C[C@@H]2O[C@](O)(C[C@@H](O)C[C@@H](O)[C@H](O)CC[C@@H](O)C[C@@H](O)CC(=O)O[C@H]1C)C[C@H](O)[C@H]2C(=O)O (stereo in doubt)', 'yes'),
  ('CC1CCCO1 (stereo unspecified)', 'no');
